# tgt: SARS-CoV-2 PLpro (Severe acute respiratory syndrome coronavirus 2)
# test_summary: biochemical
# settings: CIY substrate, without Tween-20; read-out: IC50-PLpro
measurement_kind: IC50 (µM)

[[record]]
compound = "COC(=O)C1(C)Cc2cc(OC(C)=O)c(OC(C)=O)cc2N1 (stereo not shown)"
tgt = "SARS-CoV-2 PLpro (Severe acute respiratory syndrome coronavirus 2)"
measurement_kind = "IC50"
measured_result = 12.4


* * *

# tgt: USP25 (Homo sapiens, UniProt Q9UHP3)
# Sequence (Q9UHP3 157-706): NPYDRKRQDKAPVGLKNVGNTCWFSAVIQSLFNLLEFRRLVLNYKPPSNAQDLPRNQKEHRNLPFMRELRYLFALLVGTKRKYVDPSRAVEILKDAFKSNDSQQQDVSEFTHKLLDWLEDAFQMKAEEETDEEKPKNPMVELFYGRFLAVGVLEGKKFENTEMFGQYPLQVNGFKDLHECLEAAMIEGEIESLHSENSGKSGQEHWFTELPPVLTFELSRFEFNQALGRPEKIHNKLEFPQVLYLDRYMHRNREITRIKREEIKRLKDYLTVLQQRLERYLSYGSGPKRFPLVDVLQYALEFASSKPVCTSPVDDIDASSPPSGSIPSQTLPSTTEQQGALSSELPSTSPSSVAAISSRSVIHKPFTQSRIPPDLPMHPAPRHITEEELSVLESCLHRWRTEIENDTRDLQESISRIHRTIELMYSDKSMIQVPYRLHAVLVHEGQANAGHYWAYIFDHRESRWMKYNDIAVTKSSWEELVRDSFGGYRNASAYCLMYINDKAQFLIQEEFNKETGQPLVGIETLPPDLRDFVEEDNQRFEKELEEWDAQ
pIC50: −log10 of the molar value.
measurement_kind: pIC50

[[record]]
smiles_entry = "COC(=O)c1cc2c(n1S(=O)(=O)c1ccc(C)cc1)C(=O)C(=O)c1[nH]cc(C(=O)OCc3ccccc3)c1-2"
measured_result = 4.39

